The following compounds are listed with their measured inhibition at 10 µM values.
Test system: B16F10 (malignant melanoma)
method-description: Antiproliferative activity (CCK-8 cell viability), B16F10
Format: cell-based
run-conditions: Mus musculus, B16-F10, Compound concentration: 10 μM, 72 h, read-out: Antiproliferative activity in cancerous cells, B16F10 (inhibition of cell growth)
observed-property: inhibition at 10 µM

CC1=C(CC(=O)O)c2cc(Cl)ccc2/C1=C\c1ccc(Oc2ccc(Cl)cc2)cc1 ... ≥ 50%
CC1=C(CC(=O)O)c2ccc(F)cc2/C1=C\c1cccc(COc2ccccc2)c1 ... ≥ 50%
COc1ccc(/C=C2/C(Cc3ccc(Oc4ccc(F)cc4)cc3)=C(CC(=O)O)c3cc(F)ccc32)cc1 ... ≥ 50%
CC(C)c1ccc(/C=C2/C(Cc3ccc(F)cc3)=C(CC(=O)O)c3cc(F)ccc32)cc1 [D2] ... ≥ 50%
CC1=C(CC(=O)O)c2cc(Cl)ccc2/C1=C\c1ccc(COCc2ccc(F)cc2)cc1 ... < 30%
CC1=C(CC(=O)O)c2cc(F)ccc2/C1=C\c1ccc(Oc2ccc(Cl)nc2)cc1 ... ≥ 50%
COc1ccc(/C=C2/C(C)=C(CC(=O)O)c3cc(F)ccc32)cc1Cl ... 30 to 50%
CC1=C(CC(=O)O)c2cc(F)ccc2/C1=C\c1ccc(-c2ccc(Cl)cc2)cc1 ... ≥ 50%
COc1ccc(COCc2ccc(/C=C3/C(C)=C(CC(=O)O)c4cc(F)ccc43)cc2)cc1Cl ... ≥ 50%
CC1=C(CC(=O)O)c2cc(C)ccc2/C1=C\c1ccc(COCc2ccc(Cl)cc2)cc1 ... < 30%
CC1=C(CC(=O)O)c2cc(C)ccc2/C1=C\c1ccc(Oc2ccc(F)cc2)cc1 ... < 30%
CC1=C(CC(=O)O)c2cc(F)ccc2/C1=C\c1ccc(S(=O)(=O)c2ccc(F)cc2)cc1 ... ≥ 50%
CC1=C(CC(=O)O)c2c(F)cc(F)cc2/C1=C\c1ccc(C(F)(F)F)cc1 ... ≥ 50%
CC1=C(CC(=O)O)c2cc(F)ccc2/C1=C/c1ccc(-c2ccc(Cl)cc2)cc1 ... ≥ 50%
CCc1ccc2c(c1)C(CC(=O)O)=C(C)/C2=C/c1ccc(COCc2ccc(F)cc2)cc1 ... 30 to 50%
CC1=C(C(C)C(=O)O)c2ccccc2/C1=C\c1ccc(Oc2ccc(F)cc2)cc1 (stereo not shown) ... ≥ 50%
CC1=C(CC(=O)O)c2cc(F)ccc2/C1=C\c1ccc(Sc2nc3ccccc3[nH]2)cc1 ... < 30%
CC1=C(CC(=O)O)c2cc(C)ccc2/C1=C\c1ccc(COc2ccc(C(F)(F)F)cc2)cc1 ... ≥ 50%
CC1=C(CC(=O)O)c2cc(F)ccc2/C1=C\c1ccc(OCCc2ccc(F)cc2)cc1 ... ≥ 50%
CC1=C(CC(=O)O)c2cc(F)ccc2/C1=C\c1ccc(Oc2ccc(O)c(Cl)c2)cc1 ... ≥ 50%
CC1=C(CC(=O)O)c2cc(F)ccc2/C1=C\c1ccc(COCc2ccc(F)cc2)cc1 ... ≥ 50%
CC1=C(CC(=O)O)c2cc(Cl)ccc2/C1=C\c1ccc(Oc2ccc(C(C)C)cc2)cc1 ... ≥ 50%

====

Test system: MDA-MB-231 (breast cancer)
method-description: Antiproliferative activity (CCK-8 cell viability), MDA-MB-231
Format: cell-based
run-conditions: Homo sapiens, Compound concentration: 10 μM, 72 h, read-out: Antiproliferative activity in cancerous cells, MDA-MB-231 (inhibition of cell growth)
observed-property: inhibition at 10 µM

CCC1=C(CC(=O)O)c2cc(F)ccc2/C1=C\c1cccc(COc2ccccc2)c1 ... ≥ 50%
CC1=C(CC(=O)O)c2cc(Cl)ccc2/C1=C\c1cccc(Oc2ccc(Cl)cc2)c1 ... ≥ 50%
CCc1ccc2c(c1)/C(=C\c1ccc(COCc3ccc(F)cc3)cc1)C(C)=C2CC(=O)O ... < 30%
CC1=C(CC(=O)O)c2cc(Cl)ccc2/C1=C/c1ccc(Oc2ccc(F)c(F)c2)cc1 ... ≥ 50%

Hey, just so you know, these numbers are from patent US20260184663A1.
